Reported Extent of Disease by Histologic Score: number of animals with score 1 values follow for various molecules
- Tested on: Pneumocystis carinii
- test.protocol: Treatment of Pneumocystis carinii pneumonia in Sprague-Dawley rats (extent of disease by histologic score)
- Type: in vivo, male Sprague-Dawley rats
- run.parameters: 10 mg/kg i.v. daily, 14 days; 1 = scattered cysts, <5% of lung involved
Form entry: value (animals) — number only.

1. N=C(N)c1ccc(NCCCCNc2ccc(C(=N)N)cc2)cc1: 1
2. N=C(N)c1ccc(NCCCCNc2ccc(C(=N)N)cc2N)c(N)c1: 4
3. c1cc(C2=NCCN2)ccc1OCCCCOc1ccc(C2=NCCN2)cc1: 2
4. N=C(N)c1ccc(OCCCOc2ccc(C(=N)N)cc2)cc1: 4
5. N=C(N)c1ccc(NCCCCCCNc2ccc(C(=N)N)cc2)cc1: 1

Prompt line: Look up Extent of Disease by Histologic Score: number of animals with score 1 for this molecule: N=C(N)c1ccc(NCCCCCCNc2ccc(C(=N)N)cc2N)c(N)c1
Response line: 1

Prompt line: Try the molecule N=C(N)c1ccc(NCCCNc2ccc(C(=N)N)cc2)cc1
Response line: 1

Prompt line: Now this one: c1cc(C2=NCCN2)ccc1OCCCCCOc1ccc(C2=NCCN2)cc1
Response line: 3

Prompt line: What would you report for N=C(N)c1ccc(OCCCCCCOc2ccc(C(=N)N)cc2)cc1 [Example 20, hexamidine, reference compound] ?
Response line: 3
